// data source = the RNAGym collection of RNA variant scans (doi:10.1073/pnas.2313332121)

B1: TPR 5TU (parent)
chain: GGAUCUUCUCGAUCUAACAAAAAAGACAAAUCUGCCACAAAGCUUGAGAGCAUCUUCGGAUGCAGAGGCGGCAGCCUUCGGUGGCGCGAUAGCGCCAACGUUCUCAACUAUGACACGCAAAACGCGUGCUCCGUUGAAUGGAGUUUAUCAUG

Variants of: B1
Test: polymerase ribozyme fitness, log enrichment relative to wild type (log ratio); higher = more active; in vitro selection for triplet polymerase activity
Variants at the floor of the assay were thinned out.
observable: polymerase ribozyme fitness (log ratio)

[
  {
    "mutation.notation": "G58A C75U A91G C95G",
    "censoring.operator": "≤",
    "quantitative.result": -4.2
  },
  {
    "mutation.notation": "G59C G83A C87A A137U G140U",
    "censoring.operator": "≤",
    "quantitative.result": -4.2
  },
  {
    "mutation.notation": "A41U G81A G84C C85A C96U G126A",
    "censoring.operator": "≤",
    "quantitative.result": -4.2
  },
  {
    "mutation.notation": "A39U A52G G74U U90A A122G C125G C129U",
    "censoring.operator": "≤",
    "quantitative.result": -4.2
  },
  {
    "mutation.notation": "A26C A52U C54U G58A G71A G74C C87U C108A",
    "censoring.operator": "≤",
    "quantitative.result": -4.2
  },
  {
    "mutation.notation": "U55A A64C",
    "censoring.operator": "≤",
    "quantitative.result": -4.2
  },
  {
    "mutation.notation": "A19U A20C A26U C85U C118A C125U U134G G143A",
    "censoring.operator": "≤",
    "quantitative.result": -4.2
  },
  {
    "mutation.notation": "A40G A64C G70A C114U",
    "censoring.operator": "≤",
    "quantitative.result": -4.2
  },
  {
    "mutation.notation": "C10A A39U G86C U109G U130C",
    "censoring.operator": "≤",
    "quantitative.result": -4.2
  },
  {
    "mutation.notation": "A23C C32A U56A A60G C103A A110G G112C",
    "censoring.operator": "≤",
    "quantitative.result": -4.2
  },
  {
    "mutation.notation": "C14U G46A C54A C132A",
    "censoring.operator": "≤",
    "quantitative.result": -4.2
  },
  {
    "mutation.notation": "C14G A41U G62C C95U C96A G112U A142U U146A A150G",
    "censoring.operator": "≤",
    "quantitative.result": -4.2
  },
  {
    "mutation.notation": "U55A G94U C108A",
    "censoring.operator": "≤",
    "quantitative.result": -4.2
  },
  {
    "mutation.notation": "A30U A73G",
    "censoring.operator": "=",
    "quantitative.result": -3.78
  },
  {
    "mutation.notation": "G11A G67A C79G C87A C114G A137G",
    "censoring.operator": "≤",
    "quantitative.result": -4.2
  },
  {
    "mutation.notation": "U6G A52C",
    "censoring.operator": "=",
    "quantitative.result": -0.94
  },
  {
    "mutation.notation": "C43U U56A C87A G152U",
    "censoring.operator": "≤",
    "quantitative.result": -4.2
  },
  {
    "mutation.notation": "A47U C57A",
    "censoring.operator": "=",
    "quantitative.result": 0.807
  },
  {
    "mutation.notation": "A12U U15C U56A G92A A150G",
    "censoring.operator": "=",
    "quantitative.result": -1.16
  },
  {
    "mutation.notation": "C18U U55A C93A G128A G136A",
    "censoring.operator": "≤",
    "quantitative.result": -4.2
  },
  {
    "mutation.notation": "A39G G80U C95U C116G",
    "censoring.operator": "=",
    "quantitative.result": -3.6
  },
  {
    "mutation.notation": "C18U A19U A64G A89G A119U U146C",
    "censoring.operator": "≤",
    "quantitative.result": -4.2
  },
  {
    "mutation.notation": "A21G G50C G71C C79A C95G A121U U127G G136U U139C A142C U145G",
    "censoring.operator": "≤",
    "quantitative.result": -4.2
  },
  {
    "mutation.notation": "A19U G59U G86A G136A",
    "censoring.operator": "=",
    "quantitative.result": -2.01
  },
  {
    "mutation.notation": "U9G C36U C76A G94A",
    "censoring.operator": "≤",
    "quantitative.result": -4.2
  },
  {
    "mutation.notation": "C27U U31A G48U C85U",
    "censoring.operator": "=",
    "quantitative.result": -2.25
  },
  {
    "mutation.notation": "C5U C51A",
    "censoring.operator": "=",
    "quantitative.result": -0.999
  },
  {
    "mutation.notation": "C116G G140C",
    "censoring.operator": "=",
    "quantitative.result": -3.81
  },
  {
    "mutation.notation": "U13G C36U A47U G84A A122G A138U",
    "censoring.operator": "≤",
    "quantitative.result": -4.2
  },
  {
    "mutation.notation": "A64C C85A C118G A121C",
    "censoring.operator": "≤",
    "quantitative.result": -4.2
  },
  {
    "mutation.notation": "G50C U130C",
    "censoring.operator": "=",
    "quantitative.result": -1.3
  },
  {
    "mutation.notation": "A17U A37G U82A U144A",
    "censoring.operator": "=",
    "quantitative.result": -2.56
  },
  {
    "mutation.notation": "C54U C95G",
    "censoring.operator": "=",
    "quantitative.result": -1.07
  },
  {
    "mutation.notation": "C35U A52G A60C A121U",
    "censoring.operator": "=",
    "quantitative.result": -3.29
  },
  {
    "mutation.notation": "C38A C63G A150G",
    "censoring.operator": "=",
    "quantitative.result": -3
  }
]
